# Tested on: human Factor 7 mRNA
# TEST_NAME: Antisense inhibition of human Factor 7 mRNA in HepB3 cells, 50 nM antisense oligonucleotide, lipofectin
# Format: cell-based
# ASSAY_CONDITIONS: Table 6, 50 nM, lipofectin, approximately 24 hours
Strand notation (5' to 3'): a small letter for the sugar, then the base; units joined by * are phosphorothioate-linked, units joined directly phosphodiester-linked; [ ] holds rarer units or linkages, { } end groups; capitals alone tell only the bases. e = 2'-O-(2-methoxyethyl) (MOE); [5mC] = 5-methylcytosine; d = 2'-deoxy (DNA)
TEST_READOUT: % Inhibition (%)
Your answer should be a plain number; it is taken to be in %.

Worked cases, % Inhibition given:
422194 (antisense e[5mC]*eT*eG*dA*dG*d[5mC]*dG*d[5mC]*dG*dG*dA*dA*dG*dA*dA*dG*dG*eG*eA*e[5mC]) [compound 422194] :: 11
422273 (antisense eT*eA*d[5mC]*dT*dG*dA*dG*d[5mC]*dG*d[5mC]*dG*dG*dA*dA*dG*eA*eA*eG*eG*eG) [compound 422273] :: 0

# ---- query substance ----
Input: Would you kindly share the measured % Inhibition for 422187 (antisense e[5mC]*eG*eG*dA*dA*dG*dA*dA*dG*dG*dG*dA*d[5mC]*dG*dG*dA*dA*eG*eG*eT) [compound 422187] ?
Output: 28

###

# System: human Factor 7 mRNA
# TEST_NAME: Antisense inhibition of human Factor 7 mRNA in HepB3 cells, 50 nM antisense oligonucleotide, lipofectin
# Type: cell-based
# ASSAY_CONDITIONS: lipofectin, 50 nM antisense oligonucleotide, approximately 24 hours, Factor 7 mRNA by real-time RT-PCR (RTS 2927), relative to untreated control
Strand notation (5' to 3'): a small letter for the sugar, then the base; units joined by * are phosphorothioate-linked, units joined directly phosphodiester-linked; [ ] holds rarer units or linkages, { } end groups; capitals alone tell only the bases. e = 2'-O-(2-methoxyethyl) (MOE); [5mC] = 5-methylcytosine; d = 2'-deoxy (DNA)
TEST_READOUT: % Inhibition (%)
Your answer should be a plain number; it is taken to be in %.

Worked cases, % Inhibition given:
416458 (antisense eG*eG*e[5mC]*eG*eG*dA*dG*d[5mC]*dA*dG*d[5mC]*dG*d[5mC]*dG*dA*eT*eG*eT*e[5mC]*eG) [compound 416458] :: 29
416556 (antisense eA*eT*eA*eG*e[5mC]*dT*dT*dT*dG*dA*dT*d[5mC]*d[5mC]*dA*dA*eT*eG*e[5mC]*eT*e[5mC]) [compound 416556] :: 53
416519 (antisense eA*eA*eA*eT*eA*dT*dG*dG*dG*dA*d[5mC]*d[5mC]*d[5mC]*dA*dA*eA*eG*eT*eG*eG) [compound 416519] :: 9
416551 (antisense e[5mC]*eA*eG*eA*eA*dA*d[5mC]*dA*d[5mC]*d[5mC]*d[5mC]*dA*dT*d[5mC]*d[5mC]*eT*e[5mC]*eT*eG*eA) [compound 416551] :: 19
416534 (antisense eA*eT*eG*e[5mC]*eA*d[5mC]*dA*d[5mC]*d[5mC]*dA*dG*dG*dG*d[5mC]*dT*eG*e[5mC]*eT*eG*eG) [compound 416534] :: 32
416475 (antisense e[5mC]*eT*e[5mC]*eA*eG*d[5mC]*dT*dG*dG*dG*d[5mC]*dT*dG*dT*d[5mC]*eT*eG*e[5mC]*e[5mC]*eT) [compound 416475] :: 70

# ---- query substance ----
Input: Would you kindly share the measured % Inhibition for 416426 (antisense eA*eG*e[5mC]*e[5mC]*e[5mC]*dA*dA*dG*d[5mC]*dA*dG*dA*dA*dG*dG*e[5mC]*eA*eG*eA*eG) [compound 416426] ?
Output: 34

###

This section presents substances with their documented percent inhibition of Factor 7 mRNA, relative to untreated control cells values.
# Tested on: human Factor 7 mRNA
# TEST_NAME: Dose-dependent antisense inhibition of human Factor 7 in HepB3 cells, lipofectin
# Assay type: cell-based
# ASSAY_CONDITIONS: 50 nM, HepB3 cells, approx. 16 hours (Table 14)
Strand notation (5' to 3'): a small letter for the sugar, then the base; units joined by * are phosphorothioate-linked, units joined directly phosphodiester-linked; [ ] holds rarer units or linkages, { } end groups; capitals alone tell only the bases. e = 2'-O-(2-methoxyethyl) (MOE); [5mC] = 5-methylcytosine; d = 2'-deoxy (DNA)

Worked cases, percent inhibition of Factor 7 mRNA, relative to untreated control cells given:
422229 (antisense eA*eT*dG*d[5mC]*dA*dT*dG*dG*dT*dG*dA*dT*dG*d[5mC]*dT*eT*e[5mC]*eT*eG*eA) [compound 422229] :: 86%
422140 (antisense eG*eT*eT*e[5mC]*eT*dG*d[5mC]*dA*dG*dG*dA*dG*d[5mC]*dG*dG*e[5mC]*e[5mC]*eT*eA*eA) [compound 422140] :: 74%
422177 (antisense e[5mC]*e[5mC]*e[5mC]*dG*d[5mC]*d[5mC]*dG*dG*d[5mC]*dT*d[5mC]*dT*dG*d[5mC]*dT*d[5mC]*dA*eT*e[5mC]*e[5mC]) [compound 422177] :: 81%
422295 (antisense e[5mC]*eG*dA*dG*dT*dT*d[5mC]*dT*dG*d[5mC]*dA*dG*dG*dA*dG*e[5mC]*eG*eG*e[5mC]*e[5mC]) [compound 422295] :: 80%

# ---- query substance ----
Input: Would you kindly share the measured percent inhibition of Factor 7 mRNA, relative to untreated control cells for 422217 (antisense eG*eA*eG*dT*dT*d[5mC]*dT*dG*d[5mC]*dA*dG*dG*dA*dG*d[5mC]*dG*dG*e[5mC]*e[5mC]*eT) [compound 422217] ?
Output: 79%

###

This section presents substances with their documented percent inhibition of Factor 7 values.
# Test system: human Factor 7 mRNA
# TEST_NAME: Dose-dependent antisense inhibition of human Factor 7 in HepB3 cells, lipofectin
# Assay type: cell-based
# ASSAY_CONDITIONS: Table 3, 6.25 nM, approximately 16 hours
Strand notation (5' to 3'): a small letter for the sugar, then the base; units joined by * are phosphorothioate-linked, units joined directly phosphodiester-linked; [ ] holds rarer units or linkages, { } end groups; capitals alone tell only the bases. e = 2'-O-(2-methoxyethyl) (MOE); [5mC] = 5-methylcytosine; d = 2'-deoxy (DNA)
Your answer should be a plain number; it is taken to be in %.

407606 (antisense e[5mC]*eT*eG*eG*eT*d[5mC]*d[5mC]*dT*dT*dG*d[5mC]*dA*dG*dG*dA*eG*e[5mC]*e[5mC]*e[5mC]*e[5mC]) [compound 407606] :: 0
407594 (antisense e[5mC]*e[5mC]*eT*eG*e[5mC]*dA*dG*d[5mC]*d[5mC]*dA*dG*dG*d[5mC]*dA*dG*e[5mC]*e[5mC]*e[5mC]*eT*eG) [compound 407594] :: 34
407641 (antisense e[5mC]*e[5mC]*eT*eG*eA*dG*dG*d[5mC]*d[5mC]*dA*dG*d[5mC]*dA*dG*dA*eT*e[5mC]*eA*e[5mC]*eG) [compound 407641] :: 53
407936 (antisense eG*eG*e[5mC]*eA*eT*dT*d[5mC]*dG*d[5mC]*d[5mC]*dA*d[5mC]*d[5mC]*dA*dT*eG*e[5mC]*eA*eT*eG) [compound 407936] :: 77

# ---- query substance ----
Input: Would you kindly share the measured percent inhibition of Factor 7 for 407643 (antisense e[5mC]*eA*e[5mC]*eA*e[5mC]*dA*dT*dG*dG*dA*dG*dT*d[5mC]*dA*dG*e[5mC]*eA*eT*e[5mC]*eG) [compound 407643] ?
Output: 59

###

This section presents substances with their documented % Inhibition values.
# System: human Factor 7 mRNA
# TEST_NAME: Antisense inhibition of human Factor 7 with short (14-mer) oligonucleotides in HepB3 cells, electroporation 1,000 nM
# Assay type: cell-based
# ASSAY_CONDITIONS: electroporation, 1,000 nM antisense oligonucleotide, approximately 24 hours, Factor 7 mRNA relative to untreated control cells
Strand notation (5' to 3'): a small letter for the sugar, then the base; units joined by * are phosphorothioate-linked, units joined directly phosphodiester-linked; [ ] holds rarer units or linkages, { } end groups; capitals alone tell only the bases. e = 2'-O-(2-methoxyethyl) (MOE); [5mC] = 5-methylcytosine; d = 2'-deoxy (DNA)
Your answer should be a plain number; it is taken to be in %.

435642 (antisense eA*e[5mC]*dA*d[5mC]*dT*dG*dG*dT*d[5mC]*d[5mC]*d[5mC]*d[5mC]*eA*eT) [compound 435642] :: 60

Input: Would you kindly share the measured % Inhibition for 435787 (antisense eG*eA*dG*dT*dG*dT*dG*dA*dG*dG*d[5mC]*dT*eT*e[5mC]) [compound 435787] ?
Output: 34

Input: Would you kindly share the measured % Inhibition for 435683 (antisense eA*eT*dG*dT*d[5mC]*dG*dT*dG*dG*dT*dT*dG*eG*eT) [compound 435683] ?
Output: 3

Input: Would you kindly share the measured % Inhibition for 435682 (antisense eG*eG*dA*dT*dG*dA*dT*dG*dA*d[5mC]*d[5mC]*dT*eG*e[5mC]) [compound 435682] ?
Output: 36
